Biological target: GPR6 (Homo sapiens, UniProt P46095)
Construct: expressed in transfected cells; host or cells: CHO cells
Sequence (P46095 whole entry): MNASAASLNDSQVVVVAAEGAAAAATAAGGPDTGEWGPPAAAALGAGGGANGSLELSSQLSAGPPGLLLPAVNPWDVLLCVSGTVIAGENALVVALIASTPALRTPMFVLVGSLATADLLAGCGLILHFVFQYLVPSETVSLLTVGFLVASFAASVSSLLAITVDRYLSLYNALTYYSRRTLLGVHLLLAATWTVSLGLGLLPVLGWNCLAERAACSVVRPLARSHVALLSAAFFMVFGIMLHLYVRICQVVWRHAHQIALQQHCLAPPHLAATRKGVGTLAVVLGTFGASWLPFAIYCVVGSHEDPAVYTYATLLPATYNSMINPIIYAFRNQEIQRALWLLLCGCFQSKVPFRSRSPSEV
Assay: GPR6 antagonist functional cAMP assay (LANCE Ultra cAMP TR-FRET, CHO cells stably expressing GPR6)
Type: cell-based
Conditions: procedure of Example 24
measured attribute: IC50

Some compounds with recorded IC50:
Cn1cc(-c2nc3cnc(C(N)=O)cc3nc2N2CCC(Oc3ccc(F)cc3F)CC2)cn1    100 to 1000 nM
Cn1cc(-c2nc3cnccc3nc2N2CC(Oc3ccc(F)cc3F)C2)cn1    1000 to 30000 nM
CC(C)(O)[C@@H](O)c1cc2nc(N3CCC(Cc4ccc(F)cc4F)CC3)c(-c3cnn(CF)c3)nc2cn1 (single isomer, unassigned)    100 to 1000 nM
Fc1ccc(F)c(CN2CCN(c3nc4cnc(-c5cnn(C(F)F)c5)cc4nc3-c3cnn(C(F)F)c3)CC2)c1    1000 to 30000 nM
COC(=O)[C@H]1C[C@@H]1c1cc2nc(N3CCC(Oc4ccc(F)cc4F)CC3)c(-c3cnn(C)c3)nc2cn1 (single isomer, unassigned)    100 to 1000 nM

input: GET /values?readout=IC50&system=GPR6 (Homo sapiens, UniProt P46095)&item= CC(=O)N1CCc2nc(N3CCC(C(C)c4ccc(F)cc4F)CC3)c(-c3cnn(C)c3)nc2C1 (stereo not drawn)
output: 100 to 1000 nM

input: GET /values?readout=IC50&system=GPR6 (Homo sapiens, UniProt P46095)&item= CCn1cc(-c2nc3cc(C(C)(O)C(C)(C)O)ncc3nc2N2CCC(Oc3ccc(F)cc3F)CC2)cn1 (single isomer, unassigned) [Compound 740]
output: 100 to 1000 nM

input: GET /values?readout=IC50&system=GPR6 (Homo sapiens, UniProt P46095)&item= COC[C@H](O)c1cc2nc(N3CCC(Oc4ccc(F)cc4F)CC3)c(-c3cnn(C)c3)nc2cn1 (single isomer, unassigned)
output: < 100 nM

input: GET /values?readout=IC50&system=GPR6 (Homo sapiens, UniProt P46095)&item= CC(C)(O)Cc1cc2nc(-c3cnn(C4CC4)c3)c(N3CCC(Oc4ccc(F)cc4F)CC3)nc2cn1
output: 100 to 1000 nM
